These entries and their values trace back to PubChem BioAssay (Tox21).

Assay: A CellTox Green Cytotoxicity Assay to monitor cytotoxicity in HEK293 cells - 32 hour (AID 1224881); also: % is scaled to controls: 0 for no effect and ±100 for the full control effect; nearly all actives have a fitted effect of over 40% in size
Conditions: CellTox Green fluorescence; series mostly up to 35.3 µM
Inconclusive results are not listed. Activity calls are given as the source filed them. Calls follow the shape of the dose curve; as a rule, active = well fitted activation curve with a large enough effect in the repeat runs; inconclusive = weak or mixed curves; inactive = flat fitted curve, though single readings scatter.
measure: outcome

| molecule | measure | result |
| --- | --- | --- |
| CC(C)CCCC(C)N (configuration not stated) | outcome | inactive |
| COc1ccc2c(c1)CCCC2=O | outcome | inactive |
| Nc1nc2c(ncn2COC(CO)CO)c(=O)[nH]1 | outcome | inactive |
| CN1CC(=O)NC1=N | outcome | inactive |
| Nc1cc(=O)[nH]c(N)n1 | outcome | inactive |
| c1ccc(CC2=NCCN2)cc1 | outcome | inactive |
| CCCCCCCCCCCCCCCCC | outcome | inactive |
| CC(=O)N(CC(O)CO)c1c(I)c(C(=O)NCCO)c(I)c(C(=O)NCC(O)CO)c1I (configuration not stated) | outcome | inactive |
| COc1ccccc1OCC(O)CN1CCN(CC(=O)Nc2c(C)cccc2C)CC1 (configuration not stated) | outcome | inactive |
| CC(=O)OCC(=O)[C@@]1(O)CCC2C3CCC4=CC(=O)CC[C@]4(C)C3[C@@H](O)C[C@@]21C (some centres not stated) | outcome | inactive |
| N=c1nc(N2CCCCC2)cc(N)n1O | outcome | inactive |
| COc1ccc2c(c1)c(CC(=O)OCC(=O)O)c(C)n2C(=O)c1ccc(Cl)cc1 | outcome | inactive |
| CC/C=C\CC/C=C/C(OCC)OCC | outcome | inactive |
| NS(=O)(=O)c1ccc(C(=O)O)cc1 | outcome | inactive |
| O=C(CCCN1CCC(O)(c2cccc(C(F)(F)F)c2)CC1)c1ccc(F)cc1 | outcome | inactive |
| Cc1cc(O)cc2c1O[C@](C)(CCC[C@H](C)CCC[C@H](C)CCCC(C)C)CC2 | outcome | inactive |
| CCCCCCCCCCCCN(CCCCCCCCCCCC)CCCCCCCCCCCC | outcome | inactive |
| CC(=O)OC/C=C(\C)CC/C=C(\C)CCC=C(C)C | outcome | inactive |
| O=C(O)Cc1ccc(CCNS(=O)(=O)c2ccc(Cl)cc2)cc1 | outcome | inactive |
| C[C@H](NC(CCc1ccccc1)C(=O)O)C(=O)N1CCC[C@H]1C(=O)O (some centres not stated) | outcome | inactive |
| CCCN1CCCC[C@H]1C(=O)Nc1c(C)cccc1C | outcome | inactive |
| O=C(O)COc1nn(Cc2ccccc2)c2ccccc12 | outcome | inactive |
| CO[Si](CCCOCC1CO1)(OC)OC (configuration not stated) | outcome | inactive |
| CC(C)(O)C(=O)c1ccccc1 | outcome | inactive |
| CCOC(=O)CCC(C)=O | outcome | inactive |
| CCC(C)C1CCCCC1=O (configuration not stated) | outcome | inactive |
| NC(=O)c1ccc([N+](=O)[O-])cc1 | outcome | inactive |

* * *

Assay: qHTS assay to identify small molecule agonists of the farnesoid-X-receptor (FXR) signaling pathway - cell viability counter screen (AID 743218); also: % is scaled to controls: 0 for no effect and ±100 for the full control effect; nearly all actives have a fitted effect of over 45% in size
Details: FXR-bla HEK293T viability, CellTiter-Glo luminescence, 16 h; series mostly up to 62.6 µM
Excerpt: U.S. Tox21 Program National Center for Advancing Translational Sciences [NCATS] NIH Chemical Genomics Center [NCGC] U.S. Environmental Protection Agency [EPA] National Institutes of Environmental Health Sciences [NIEHS] National Toxicology Program [NTP] U.S. Food and Drug Administration [FDA] Tox21 Assay Overview: The farnesoid-X-receptor (FXR), a nuclear hormone receptor, is highly expressed in liver, intestine, kidney and adrenal cortex. […]
Records with an inconclusive call do not appear. Activity calls are given as the source filed them. Calls follow the shape of the dose curve; as a rule, active = well fitted cell-killing curve with a large enough effect in the repeat runs; inconclusive = weak or mixed curves, or effect the other way; inactive = no such curve, though single readings can be large or run the other way.
measure: viability change, negative = cytotoxic

| compound | result |
| --- | --- |
| Cc1cc2c(cc1S(N)(=O)=O)S(=O)(=O)CCC2 | inactive |
| O=C[C@H](O)[C@@H](O)[C@H](O)[C@H](O)CO | inactive |
| C[N+](C)(C)CCCCCC[N+](C)(C)C | inactive |
| CCCCNC(=O)NCCCC | inactive |
| c1ccc([C@H]2CN3CCSC3=N2)cc1 | inactive |
| CN1CCCC1 | inactive |
| Cc1cccc(C)c1NC(=O)C(C)N (stereo not drawn) | inactive |
| CC(=O)OCC(CCn1cnc2cnc(N)nc21)COC(C)=O | inactive |
| N[C@@H](C(=O)N[C@@H]1C(=O)N2C(C(=O)O)=C(Cl)CS[C@H]12)c1ccccc1 | 3.28% [at 13.2 µM] (inactive) |
| CCOC(=O)C(=O)OCC | inactive |
| COC(=O)C1=C(C)NC(C)=C(C(=O)OC)C1c1ccccc1[N+](=O)[O-] | inactive |
| ClC(Cl)(Br)Br | inactive |
| Nc1ccc(S(=O)(=O)Nc2ccnn2-c2ccccc2)cc1 | inactive |
| CC(C)CNCC(C)C | inactive |
| O=C1CCCCCCCCCCCN1 | inactive |
| C[C@H](NC(CCc1ccccc1)C(=O)O)C(=O)N1CCC[C@H]1C(=O)O (stereo partly drawn) | inactive |
| CN1CCN(c2cc3c(cc2F)c(=O)c(C(=O)O)cn3-c2ccc(F)cc2)CC1 | inactive |
| C[C@H]1C[C@@H](O)CC(C)(C)C1 | inactive |
| O=c1n(CCO)c(=O)n(CCO)c(=O)n1CCO | inactive |
| NC(=O)c1ccc(N)cc1 | inactive |
| CCOC(=O)c1c(C)n(C)c2ccc(O)cc12 | inactive |
| CC(C)NCC(O)c1ccc(NS(C)(=O)=O)cc1 (stereo not drawn) | inactive |
| C[C@](N)(Cc1ccc(O)cc1)C(=O)O | 17.1% [at 5.95 µM] (inactive) |
| O=C(O)c1ccccc1OP(=O)(O)O | inactive |
| CC[N+](C)(C)c1cccc(O)c1 | inactive |
| CC(=O)Nc1c(I)cc(I)c(C(=O)O)c1I | inactive |
| O=C1NC(=O)[C@@]2(CCOc3ccc(F)cc32)N1 | inactive |
| CCOC(=O)CCC(C)=O | inactive |
